biological target: FGFR1 (UniProt P11362); assay: phosphorylation enrichment, bacterial display (enrichment ratio); higher = better substrate or ligand; peptides without Tyr show the background
Sequence (P11362 whole entry, looked up): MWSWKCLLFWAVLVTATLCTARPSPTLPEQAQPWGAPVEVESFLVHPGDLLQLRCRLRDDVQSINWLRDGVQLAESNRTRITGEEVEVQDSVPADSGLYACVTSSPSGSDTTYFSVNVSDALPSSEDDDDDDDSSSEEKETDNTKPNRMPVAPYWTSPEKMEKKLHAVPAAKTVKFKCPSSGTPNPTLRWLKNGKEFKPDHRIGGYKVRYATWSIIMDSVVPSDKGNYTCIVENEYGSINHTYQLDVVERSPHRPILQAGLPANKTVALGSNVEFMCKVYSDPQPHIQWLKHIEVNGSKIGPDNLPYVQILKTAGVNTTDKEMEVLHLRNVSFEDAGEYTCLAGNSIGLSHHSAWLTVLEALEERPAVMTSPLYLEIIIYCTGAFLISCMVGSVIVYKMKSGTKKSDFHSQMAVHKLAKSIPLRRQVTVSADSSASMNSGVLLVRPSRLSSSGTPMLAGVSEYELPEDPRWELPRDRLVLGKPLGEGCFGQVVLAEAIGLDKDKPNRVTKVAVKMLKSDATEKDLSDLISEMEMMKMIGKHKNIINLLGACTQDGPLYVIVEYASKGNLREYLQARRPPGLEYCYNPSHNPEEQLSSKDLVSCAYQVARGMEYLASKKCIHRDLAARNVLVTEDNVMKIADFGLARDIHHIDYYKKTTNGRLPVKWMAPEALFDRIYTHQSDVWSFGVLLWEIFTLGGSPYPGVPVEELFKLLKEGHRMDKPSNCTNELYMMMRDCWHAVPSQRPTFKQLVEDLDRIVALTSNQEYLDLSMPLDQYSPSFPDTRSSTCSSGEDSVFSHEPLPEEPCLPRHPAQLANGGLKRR
label 1 means recorded phosphorylation enrichment is 0.4 or above; label 0 means it is below 0.4.

INSERT INTO measurements (sequence_string, label_value) VALUES
  ('RNFVRYVQGLK [VWF_Y1400]', 'label 0'),
  ('FKEIVYAVSSD [DCX_Y70_G67E]', 'label 1'),
  ('NQNIGYKLGHR [KCNN3_Y268]', 'label 0'),
  ('GRRGQYVMPSE [TTC7A_Y396_L399P]', 'label 1'),
  ('WAFNLYDINKD [KCNIP3_Y174]', 'label 1'),
  ('VKPENYWRLDI [VHL_Y175_R176W]', 'label 1'),
  ('GIVKAYFVHAR [AIPL1_Y267_R270H_YF]', 'label 0'),
  ('HEEDNYIEMIP [NWD2_Y566_L569M]', 'label 1'),
  ('INMKEYCKKDF [NTN1_Y490_K489E_YF]', 'label 1'),
  ('DKATEYIQFVR [MAX_Y70_M74V_YF]', 'label 1'),
  ('PELINYHQHNS [BTK_Y361]', 'label 1'),
  ('FRNSLYAPDFS [FAM92A_Y226_YF]', 'label 1'),
  ('HNQDGYSFLSR [LDLR_Y845_P848L_YF]', 'label 1'),
  ('FDDIACIRKTL [PIK3CA_Y1021_Y1021C]', 'label 1');

* * *

biological target: Jak2 (UniProt O60674); assay: phosphorylation enrichment, bacterial display (enrichment ratio); higher = better substrate or ligand; peptides without Tyr show the background
Sequence (O60674 whole entry, looked up): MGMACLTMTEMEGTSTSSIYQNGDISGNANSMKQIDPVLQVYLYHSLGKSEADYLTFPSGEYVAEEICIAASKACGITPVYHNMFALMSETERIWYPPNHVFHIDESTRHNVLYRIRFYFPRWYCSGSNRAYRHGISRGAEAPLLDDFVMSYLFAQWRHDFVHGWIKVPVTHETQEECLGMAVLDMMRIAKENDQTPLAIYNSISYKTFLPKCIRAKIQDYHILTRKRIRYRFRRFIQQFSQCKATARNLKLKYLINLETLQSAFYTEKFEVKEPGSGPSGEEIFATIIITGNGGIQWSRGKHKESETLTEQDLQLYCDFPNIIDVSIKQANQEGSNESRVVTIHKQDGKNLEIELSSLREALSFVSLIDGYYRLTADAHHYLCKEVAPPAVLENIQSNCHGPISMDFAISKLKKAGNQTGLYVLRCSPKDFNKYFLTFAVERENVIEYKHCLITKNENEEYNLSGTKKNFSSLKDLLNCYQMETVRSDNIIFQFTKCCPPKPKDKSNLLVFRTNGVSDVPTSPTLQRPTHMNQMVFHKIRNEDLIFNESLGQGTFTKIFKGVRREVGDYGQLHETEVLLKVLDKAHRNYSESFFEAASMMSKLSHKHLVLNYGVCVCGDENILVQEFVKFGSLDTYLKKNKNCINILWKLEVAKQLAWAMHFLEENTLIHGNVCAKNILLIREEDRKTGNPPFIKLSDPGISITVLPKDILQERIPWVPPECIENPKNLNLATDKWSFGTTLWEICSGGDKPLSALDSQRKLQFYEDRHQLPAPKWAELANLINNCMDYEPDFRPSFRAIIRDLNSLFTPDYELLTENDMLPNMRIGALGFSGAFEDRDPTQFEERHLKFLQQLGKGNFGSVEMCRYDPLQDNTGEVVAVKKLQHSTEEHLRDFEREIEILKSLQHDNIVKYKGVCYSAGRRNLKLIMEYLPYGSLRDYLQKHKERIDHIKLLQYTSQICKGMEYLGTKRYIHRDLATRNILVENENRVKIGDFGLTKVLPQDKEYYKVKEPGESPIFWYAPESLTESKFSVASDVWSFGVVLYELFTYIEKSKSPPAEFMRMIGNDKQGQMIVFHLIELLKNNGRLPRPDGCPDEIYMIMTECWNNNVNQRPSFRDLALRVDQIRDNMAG
ASSAY ENDPOINT: phosphorylation enrichment

INSERT INTO assay_data (sequence_string, assay_endpoint, result_value) VALUES
  ('AALVQYFMEHH [PTPN11_Y80_E76A_YF]', 'phosphorylation enrichment', 0.772),
  ('RFWPRYVKVGS [NOG_Y172]', 'phosphorylation enrichment', 0.622),
  ('SNMPTYSGHFT [GRIN2A_Y1224]', 'phosphorylation enrichment', 0.653),
  ('FRPPFYHRDCM [HGD_Y334_N337D_YF]', 'phosphorylation enrichment', 0.942);

* * *

biological target: c-Src SH2; experiment: SH2 binding enrichment of the phosphorylated peptide, bacterial display (enrichment ratio); higher = better substrate or ligand; peptides without Tyr show the background
ASSAY ENDPOINT: SH2 binding enrichment

INSERT INTO results (sequence_string, result_value) VALUES
  ('VTSLKYSTSPF [BRIP1_Y916_YF]', 0.455),
  ('REEIKYMLWLS [OTC_Y55_G50R]', 0.502),
  ('GGGMFYPLDLF', 0.532),
  ('FQKNSYSEELR [LMNA_Y211_I210S]', 0.413);

* * *

target: MERTK (UniProt Q12866); test: phosphorylation enrichment, bacterial display (enrichment ratio); higher = better substrate or ligand; peptides without Tyr show the background
Sequence (Q12866 whole entry, looked up): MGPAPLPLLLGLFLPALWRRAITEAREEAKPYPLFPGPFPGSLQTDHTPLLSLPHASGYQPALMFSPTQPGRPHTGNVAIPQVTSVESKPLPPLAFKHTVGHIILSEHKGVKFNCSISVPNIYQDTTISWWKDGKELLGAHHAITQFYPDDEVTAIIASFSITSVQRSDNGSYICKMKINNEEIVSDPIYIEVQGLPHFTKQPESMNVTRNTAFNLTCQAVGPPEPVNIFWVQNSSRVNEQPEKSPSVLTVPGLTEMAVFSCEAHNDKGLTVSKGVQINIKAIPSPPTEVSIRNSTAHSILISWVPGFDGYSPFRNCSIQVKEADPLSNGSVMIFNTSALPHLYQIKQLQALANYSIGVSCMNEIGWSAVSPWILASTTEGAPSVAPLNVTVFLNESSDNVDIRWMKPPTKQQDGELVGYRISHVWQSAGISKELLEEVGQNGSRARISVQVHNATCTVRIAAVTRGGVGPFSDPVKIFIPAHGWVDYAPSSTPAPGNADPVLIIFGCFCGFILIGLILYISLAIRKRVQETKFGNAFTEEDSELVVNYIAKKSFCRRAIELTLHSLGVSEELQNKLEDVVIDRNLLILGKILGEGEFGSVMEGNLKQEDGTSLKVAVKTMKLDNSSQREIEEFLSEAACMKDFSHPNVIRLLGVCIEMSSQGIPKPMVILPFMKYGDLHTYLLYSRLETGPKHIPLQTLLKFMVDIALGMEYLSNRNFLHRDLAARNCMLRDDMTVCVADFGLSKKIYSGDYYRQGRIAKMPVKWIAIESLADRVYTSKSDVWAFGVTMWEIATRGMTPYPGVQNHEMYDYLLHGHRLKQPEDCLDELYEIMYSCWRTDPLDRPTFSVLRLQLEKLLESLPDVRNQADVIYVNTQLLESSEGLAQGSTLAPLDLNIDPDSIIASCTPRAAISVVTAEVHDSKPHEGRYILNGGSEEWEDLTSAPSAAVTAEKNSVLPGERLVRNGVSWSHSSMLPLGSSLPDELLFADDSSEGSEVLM
Category key, based on recorded phosphorylation enrichment: lower level (below 0.4), middle level (0.4 to below 0.6), upper level (0.6 or more)

INSERT INTO assay_data (sequence_string, label_value) VALUES
  ('YVFSFYHAFSG [ACTN4_Y265_S262F]', 'upper level'),
  ('KILTHYKRPHT [KMT2D_Y5349]', 'lower level'),
  ('ASYGPYTRVQS [FOXL2_Y258]', 'lower level'),
  ('CNNFICGGCRG [SPINT2_Y163_Y163C]', 'middle level'),
  ('VKYGAYINDFK [GLB1_Y488_N484K]', 'lower level'),
  ('LLRFLYFFVCS [SLC34A2_Y109_G106R]', 'upper level'),
  ('QDEPTYARSSK [PEAK1_Y616_H611Q]', 'middle level'),
  ('RSAGKDDVFLI [MECP2_Y120_Y120D_YF]', 'middle level'),
  ('MARDIYRASFF [ALK_Y1278_YF]', 'middle level'),
  ('FLLTVYSIFSK [SGCE_Y38]', 'upper level'),
  ('VKMLEYLGKDV [CASP5_Y74]', 'middle level'),
  ('EYGSGYPNDPK [RNASEH2A_Y210_D205E]', 'middle level'),
  ('YRDALYKFMVD [PHEX_Y250]', 'upper level'),
  ('YQSKHYACIRQ [TIMP3_Y182]', 'middle level'),
  ('GREYIYVDPMQ [PDGFRA_Y574_H570R]', 'upper level'),
  ('RGKDSYETSQL [SPP1_Y225]', 'middle level'),
  ('GRRGQYVMPSE [TTC7A_Y396_L399P]', 'middle level'),
  ('DGQVNYEELVQ [CALM1_Y139_F142L]', 'upper level'),
  ('GEPLSHTRFSL [TFRC_Y20_Y20H]', 'middle level'),
  ('AVNNFYAAKKT [CCDC178_Y422_D420N]', 'middle level'),
  ('IFHENYNAGTY [CFI_Y421]', 'middle level'),
  ('YPPDGYSRHCE [CTNND1_Y213_Y217C]', 'middle level'),
  ('LYVDVYGPSVP [NUBPL_Y109_D105Y]', 'upper level'),
  ('AHLLQYNHRVK [LGALS3_Y221]', 'middle level'),
  ('GGMTEYELVVV [KRAS_Y4_K5E]', 'middle level'),
  ('AVPSLYASGRT [ACTA1_Y145_L142P]', 'middle level'),
  ('HEVHIYEKSGA [ARPC1B_Y35]', 'upper level'),
  ('LIGRRYDDPEV [HSPA9_Y128]', 'upper level'),
  ('LSSEMCVKSFT [F5_Y2149_Y2149C_YF]', 'upper level'),
  ('QMWLKYSQSDL [SMC1A_Y714_R711W]', 'middle level'),
  ('LITTPYIGFLG [KCNQ1_Y267_L266P]', 'middle level'),
  ('DFFDLYGGQKF [PTPN11_Y66_E69Q_YF]', 'middle level'),
  ('TRDTDYQMTKR [ADA_Y308_L304R]', 'lower level'),
  ('PINEPYGDDLD [JUP_Y693_M697L]', 'upper level'),
  ('FRGFSYDDIPD [TMEM230_Y112_YF]', 'middle level'),
  ('SVEVPYEPPEV [TP53_Y220_V217E]', 'middle level'),
  ('AFLGEYIPTVF [RAC2_Y32_P29L]', 'upper level'),
  ('VQEDIYDEFVE [ALDH2_Y332]', 'middle level'),
  ('MANFMYKAGPS [MAML2_Y515_YF]', 'lower level'),
  ('SVVVPYGPPEV [TP53_Y220_E221G]', 'middle level'),
  ('LEIETYPRLLD [KRT12_Y429_R430P]', 'middle level'),
  ('SIIKDSFHRGA [GATM_Y203_Y203S]', 'lower level'),
  ('MSNFACVKREV [SCN1A_Y1694_Y1694C]', 'lower level'),
  ('MKKQKYGRIIM [HSD17B4_Y143]', 'middle level'),
  ('GTHCHYKAPTV [FZD9_Y569]', 'middle level');

* * *

target: SHP2-C SH2; experiment: SH2 binding enrichment of the phosphorylated peptide, bacterial display (enrichment ratio); higher = better substrate or ligand; peptides without Tyr show the background
Use 0.7 as the dividing line for SH2 binding enrichment, with the line itself on the true side and lower values as false.

INSERT INTO results (sequence_string, target_entity, label_value) VALUES
  ('KNNSIYVLANI [VNN1_Y134_V136L]', 'SHP2-C SH2', 'true'),
  ('PESIPYRKFTT [NTRK1_Y701_L700P]', 'SHP2-C SH2', 'false'),
  ('MCITQYERESQ [PRNP_Y218]', 'SHP2-C SH2', 'false'),
  ('GTPVMYTYDEY [COL10A1_Y623]', 'SHP2-C SH2', 'true'),
  ('NKEAIYSGYIR [SMCHD1_Y283]', 'SHP2-C SH2', 'true'),
  ('KTDVRYRSLGG [DYSF_Y1858_H1857R]', 'SHP2-C SH2', 'false'),
  ('SPRDTYSDRSG [CTPS1_Y567]', 'SHP2-C SH2', 'false'),
  ('FHNSEYGELSE [FLT4_Y1337_Y1333H]', 'SHP2-C SH2', 'true'),
  ('TTANRYLKVSD [MYOM2_Y871]', 'SHP2-C SH2', 'true'),
  ('PVQAAYQKVEA [HBB_Y131_V135E]', 'SHP2-C SH2', 'true'),
  ('YGGLRYGYGVL [KRTAP20-2_Y13]', 'SHP2-C SH2', 'true'),
  ('MCDKEYFSVHN [MET_Y1234_Y1230C_YF]', 'SHP2-C SH2', 'true'),
  ('SIKDKYVTAFY [KCNH2_Y611_L615F]', 'SHP2-C SH2', 'false'),
  ('SIIKDSFHRGA [GATM_Y203_Y203S]', 'SHP2-C SH2', 'true'),
  ('MANFMYKAGPS [MAML2_Y515_YF]', 'SHP2-C SH2', 'true'),
  ('CPFNLYAAQLS [HGD_Y40_E42A_YF]', 'SHP2-C SH2', 'true'),
  ('DHCNQYEQQKM [CHD7_Y75_Y72C]', 'SHP2-C SH2', 'true'),
  ('QMWLKYSQSDL [SMC1A_Y714_R711W]', 'SHP2-C SH2', 'true'),
  ('LRNRVYEVPVE [SLC26A3_Y756]', 'SHP2-C SH2', 'true'),
  ('SSDKVYAHQMV [MLH1_Y379]', 'SHP2-C SH2', 'false'),
  ('LEIETDRRLLD [KRT12_Y429_Y429D]', 'SHP2-C SH2', 'true'),
  ('FLAVEYHKPHI [IDS_Y225_G224E]', 'SHP2-C SH2', 'false');
